Where do these numbers come from? They come from PubChem BioAssay AID1159580.

- assay-info: chemical genetic growth profiling, strain panel (AID 1159580);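 note: tested at 20 µM; growth read once vehicle control cultures reached saturation at 30 °C; 1 = growth at the plate median or of vehicle wells; lower values mean less growth of the strain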
- cond: S. cerevisiae deletion strains, growth OD, locus YHR079C, strain IRE1, active compounds read low
The whole screen tested about 5,500 compounds, of which about 2,000 (36%) were called active. Not shown: some 18% with an inconclusive outcome. This is one part of the list.
The entries below are paired with their reported normalized growth.
The answer should be written as a number, with no unit following it.

As a guide, the following entries are already answered.
compound	measured-parameter	recorded-measurement
CSc1ccc2c(c1)N(CCC1CCCCN1C)c1ccccc1S2 (centres undefined)	normalized growth	0.979
O=c1cc(-c2ccccc2)oc2cccc(O)c12	normalized growth	0.992
c1ccc2nc(N3CCNCC3)ccc2c1	normalized growth	0.993

Looking for the measured normalized growth of CN(C)C(=O)Nc1ccc(Cl)c(Cl)c1 , can you help? 0.985

What do you get for C=Cc1c(C)c2[n-]c1=Cc1[n-]c(c(CC)c1C)C=c1[n-]c3c(c1C)C(=O)C(C(=O)[O-])C=3c1[n-]c(c(C)c1CCC(=O)[O-])C=2.[Cu] (centres undefined) ? 0.998

Moving on to the next compound: COc1ccc(CC2CCC(=NOC(=O)c3ccc(C(C)(C)C)cc3)CC2)cc1 (centres undefined) 0.999

Also, O=S(=O)([O][Al])OC[C@H]1O[C@@](COS(=O)(=O)[O][Al])(O[C@H]2O[C@H](COS(=O)(=O)[O][Al])[C@@H](OS(=O)(=O)[O][Al])[C@H](OS(=O)(=O)[O][Al])[C@H]2OS(=O)(=O)[O][Al])[C@@H](OS(=O)(=O)[O][Al])[C@@H]1OS(=O)(=O)[O][Al] please. 0.981

Next compound up: NC(N)=O 1.01

Now give it for COc1cc([C@H]2Oc3cc([C@H]4Oc5cc(O)cc(O)c5C(=O)[C@@H]4O)ccc3O[C@@H]2CO)ccc1O too. 0.996

What do you have for C[C@@H]1O[C@@H](O[C@H]2C[C@@H](O)[C@]3(CO)C4C(CC[C@]3(O)C2)[C@@]2(O)CC[C@H](C3=CC(=O)OC3)[C@@]2(C)C[C@H]4O)[C@H](O)[C@H](O)[C@H]1O (some centres undefined) ? 1.02

Further, for NC(=O)c1ncn(C2O[C@H](CO)[C@@H](O)[C@H]2O)c1N (some centres undefined) ? 1.01

Subsequent entry: Cc1cc(O)c(C=O)c2c1C(=O)Oc1c(COC(=O)/C=C/C(=O)O)c(O)c(C(=O)O)c(C)c1O2 0.985

Could you do the same for CC1(C)c2ccccc2N(CCC(N)=O)C12C=Cc1c(ccc3ccccc13)O2 (centres undefined) , please? 0.973

How about S=P(N1CC1)(N1CC1)N1CC1 ? 0.985

* * *

- assay-info: chemical genetic growth profiling, strain panel (AID 1159580)
- cond: S. cerevisiae deletion strains, growth OD, locus YLR262C, strain YPT6
Hit rate of the full screen: of about 5,500 compounds, about 2,000 (36%) were called active. Inconclusive results (about 18%) are left out. Rule as the data show it: active = normalized growth mostly below about 0.91 (no sharp cut-off); inconclusive = no clear call, values can overlap the other calls; inactive = mostly above about 0.92. Some of the results follow.
Please answer using one outcome listed in y for active, n for inactive

Record excerpt, results attached:
> print(dat)
                                   compound  classification
1  C[C@]12C=CC(=O)C=C1CCC1C3C[C@@H](O)[C@](O)(C(=O)CO)[C@@]3(C)C[C@H](O)[C@@]12F (some centres not stated)               n
2  NC(Cc1ccc(F)cc1)C(=O)O (configuration not stated)               n
3  Cc1nc2ccccn2c(=O)c1CCN1CCC(C(=O)c2ccc(F)cc2)CC1               n
4  N[C@H](Cc1cc(I)c(Oc2ccc(O)c(I)c2)c(I)c1)C(=O)O               n
5  COc1ccc(CCNC(=S)NCCc2ccc(OC)c(OC)c2)cc1OC               n
6  CC(CCC(=O)O)[C@H]1CCC2C3CC[C@@H]4CCCC[C@]4(C)C3CC[C@@]21C (some centres not stated)               n

GET /call?item= Cc1ccc(S(=O)(=O)Nc2ccc(C)c([N+](=O)[O-])c2)cc1 returns the recorded outcome of this test. n

Also need COc1c2ccoc2nc2c(OC)c(OCC(O)C(C)(C)O)ccc12 (configuration not stated) , thanks. n

// query: Cc1cc(NS(=O)(=O)c2ccc(NS(=O)(=O)c3cc(C)c(Cl)cc3C)cc2)no1 n

* * *

Item-by-item account of normalized growth
- assay-info: chemical genetic growth profiling, strain panel (AID 1159580)
- cond: S. cerevisiae deletion strains, growth OD, locus YGL248W, strain PDE1, active compounds read low
Among all 5,500 compounds or so, about 2,000 (36%) were called active. Not shown: some 18% with an inconclusive outcome. Some of the results follow.
Answer with a bare number; do not write a unit.

As a guide, the following entries are already answered.
> print(dat)
                                   molecule  recorded.measurement
1  COc1ccc(C(=O)CC(=O)c2ccc(C(C)(C)C)cc2)cc1                 0.986
2                   O=C(Nc1ccccc1)Nc1ccccc1                  1.08

Attention now shifts to the item below.
Any idea what its normalized growth is? The molecule is CC(=O)O[C@H]1CC[C@]2(C)C3=CC(=O)[C@@]4(C)C(C[C@@H]5OC6(OCC(C)CC6Br)[C@@H](C)[C@@H]54)C3CC[C@H]2C1 (stereo partly drawn) 0.995

* * *

- assay-info: chemical genetic growth profiling, strain panel (AID 1159580);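 note: tested at 20 µM; growth read once vehicle control cultures reached saturation at 30 °C; 1 = growth at the plate median or of vehicle wells; lower values mean less growth of the strain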
- cond: S. cerevisiae deletion strains, growth OD, locus YNL322C, strain KRE1, active compounds read low
The campaign covered roughly 5,500 compounds. About 2,000 (36%) were called active. Inconclusive results (about 18%) are left out. This is one part of the list.
measured-parameter: normalized growth
// return a plain number; no unit text

> print(dat)
                 compound  recorded.measurement
1  O=C(Nc1ccccc1)NC1CCCC1                 0.996

For O=C1CSC(c2ccc(Cl)c(Cl)c2)N1c1ccc(F)cc1 (stereo not drawn) , what is its reported normalized growth? 0.988

Request: COc1ccc(C(=O)CC(=O)c2ccc(C(C)(C)C)cc2)cc1 0.994

* * *

Recorded normalized growth, one value per entry.
- assay-info: chemical genetic growth profiling, strain panel (AID 1159580);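 note: tested at 20 µM; growth read once vehicle control cultures reached saturation at 30 °C; 1 = growth at the plate median or of vehicle wells; lower values mean less growth of the strain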
- cond: S. cerevisiae deletion strains, growth OD, locus YDL185W, strain tfp1, active compounds read low
Hit rate of the full screen: of about 5,500 compounds, about 2,000 (36%) were called active. Inconclusive results (about 18%) are left out. The list shows a part of the results.
Keep the answer to the number alone.

// solved cases for normalized growth follow
compound	recorded-measurement
COc1c(Cl)ccc(Cl)c1C(=O)O	1.02
CC(CN1c2ccccc2Sc2ccccc21)N(C)C (centres undefined)	0.978
CC(CN(C)C)CN1c2ccccc2CCc2ccccc21 (centres undefined)	1.02

normalized growth for CCCC(C(=O)OCCN(CC)CC)(c1ccccc1)c1ccccc1 ? 0.994

What do you get for Cc1nc2sccn2c(=O)c1CCN1CCC(=C(c2ccc(F)cc2)c2ccc(F)cc2)CC1 ? 1.01

Same question, O=c1[nH]cnc2[nH]ncc12 this time 1.02

Next compound: CNC(=O)Oc1ccc2c(c1)[C@]1(C)CCN(C)[C@@H]1N2C 0.992

Now consider Cc1cc(=O)oc2c(O)c(O)ccc12 and answer again. 1

Try this compound next: CC(=O)N=c1sc(S(N)(=O)=O)nn1C 1.01

What do we get for CC[C@H](CCC(C)[C@H]1CCC2C3CCC4C[C@@H](O)CC[C@]4(C)C3CC[C@@]21C)C(C)C (some centres undefined) ? 1.02

// same read-out, input: CCC(=O)Nc1ccc(Cl)c(Cl)c1 0.99

Record: C[C@@H]1O[C@@H](O[C@H]2C[C@@H](O)[C@]3(CO)C4C(CC[C@]3(O)C2)[C@@]2(O)CC[C@H](C3=CC(=O)OC3)[C@@]2(C)C[C@H]4O)[C@H](O)[C@H](O)[C@H]1O (some centres undefined) 1

* * *

- assay-info: chemical genetic growth profiling, strain panel (AID 1159580);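 note: tested at 20 µM; growth read once vehicle control cultures reached saturation at 30 °C; 1 = growth at the plate median or of vehicle wells; lower values mean less growth of the strain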
- cond: S. cerevisiae deletion strains, growth OD, locus YDR335W, strain msn5, active compounds read low
The campaign covered roughly 5,500 compounds. About 2,000 (36%) were called active. Another 18% or so got no clear call; they are omitted. This is one part of the list.
measured-parameter: normalized growth
Lab note: jot down the number only; don't add units.

compound	recorded-measurement
c1ccc2c(c1)CN1CCCC1=N2	1.01
c1ccc2nc(N3CCNCC3)ccc2c1	1
CC(CCC(=O)O)[C@H]1CCC2C3C[C@H](O)[C@@H]4C[C@H](O)CC[C@]4(C)C3CC[C@@]21C (some centres not stated)	0.979
C=C[C@H]1CN2CC[C@H]1C[C@@H]2[C@H](O)c1ccnc2ccccc12	0.99
CC1=C2[C@H]3OC(=O)[C@@H](C)[C@@H]3CC[C@@]2(C)C=CC1=O	0.987
CC1CCC2(OC1)OC1CC3C4CCC5C[C@@H](O)CCC5(C)C4=CCC3(C)C1[C@@H]2C (some centres not stated)	1
C=C1C2CC[C@@]3(C)[C@H](c4ccoc4)OC(=O)C[C@]13O[C@H]1CC(=O)C(C)(C)C(CC(=O)OC)[C@@]21C (some centres not stated)	0.972
NCC(CC(=O)O)c1ccc(Cl)cc1 (configuration not stated)	1

# get_value(readout='normalized growth', item= CC(CCC(=O)O)[C@H]1CCC2C3CC[C@@H]4C[C@H](O)CC[C@]4(C)C3C[C@H](O)[C@@]21C (some centres not stated) ) 0.982

Now the same for CN(C(=O)CN(CCO)CC(=O)N(C)C(C)(C)Cc1ccccc1)C(C)(C)Cc1ccccc1 1.01

Note, next up: C[C@@H](N)[C@@H](O)c1ccccc1 0.988

And what about the compound CCCCC[C@H](CC(=O)NO)C(=O)N[C@H](C(=O)N1CCC[C@H]1CO)C(C)C ? 1.02

Now the same for C=C1[C@H]2CC[C@@]3(C)[C@H](c4ccoc4)OC(=O)C[C@]13O[C@H]1C[C@H](O)C(C)(C)[C@H](CC(=O)OC)[C@]12C 1.02

For C/C=C/C(=O)N(CC)c1ccccc1C then? 1.01

Moving on to the next compound: C[C@@H]1CC2C3C[C@H](F)C4=CC(=O)C=C[C@]4(C)[C@@]3(F)[C@@H](O)C[C@]2(C)[C@@]1(O)C(=O)COC(=O)C(C)(C)C (some centres not stated) 0.995

Cool, now O=C(O)CCC(=O)Nc1ccc(S(=O)(=O)Nc2nccs2)cc1 0.992

Follow-up item: Cc1ncc([N+](=O)[O-])n1CC(C)O (configuration not stated) 0.982
